target: CDK4/Cyclin-D1 kinase complex (Homo sapiens); experiment: CDK4 ELISA based assay, Rb Ser780 phosphorylation; assay type: biochemical; settings: Table E; read-out: CDK4 ELISA assay IC50 [umol l−]
Sequence (P11802 whole entry): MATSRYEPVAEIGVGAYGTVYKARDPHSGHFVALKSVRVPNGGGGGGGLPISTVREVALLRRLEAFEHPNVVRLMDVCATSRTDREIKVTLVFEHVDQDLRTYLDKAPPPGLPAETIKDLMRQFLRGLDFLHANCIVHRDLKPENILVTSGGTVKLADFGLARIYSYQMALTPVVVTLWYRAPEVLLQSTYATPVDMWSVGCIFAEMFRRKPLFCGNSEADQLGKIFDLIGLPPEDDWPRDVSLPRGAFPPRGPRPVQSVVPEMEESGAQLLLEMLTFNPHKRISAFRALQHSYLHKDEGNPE
Sequence (P24385 whole entry partner): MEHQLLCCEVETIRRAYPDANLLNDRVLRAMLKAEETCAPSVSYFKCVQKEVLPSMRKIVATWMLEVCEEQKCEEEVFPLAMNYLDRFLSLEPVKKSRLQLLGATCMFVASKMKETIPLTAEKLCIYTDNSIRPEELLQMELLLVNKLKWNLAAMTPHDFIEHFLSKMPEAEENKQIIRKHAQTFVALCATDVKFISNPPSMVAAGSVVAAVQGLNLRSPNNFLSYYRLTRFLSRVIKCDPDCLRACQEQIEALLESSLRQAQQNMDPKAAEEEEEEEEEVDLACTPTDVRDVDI
pIC50: −log10 of the molar value.
EXPERIMENTAL READOUT: pIC50

CCC(CC)n1ccc2cnc(Nc3ccc(C4CCN(C(C)=O)CC4)cc3)nc21 [Example 214]    > 5.00
Cc1cn(C2CCCCC2)c2nc(Nc3ccc4[nH]ncc4c3)ncc12 [Example 280]    > 5.00
CC(=O)c1c(C)c2cnc(Nc3ccc(N4CCNCC4)cc3)nc2n1C1CCCC1 [Example 383]    > 6.00
CCC(CC)n1ccc2cnc(Nc3ccc(C4CCCN(C(C)=O)C4)cc3)nc21 (centres unmarked) [Example 216]    > 5.00
CN1CCN(c2ccc(Nc3ncc4ccn(C5CCCC5)c4n3)nc2)CC1 [Example 255]    < 5.00

query: What value of measured pIC50 is listed for CC(=O)c1c(C)c2cnc(Nc3ccc(N4CCNCC4)cn3)nc2n1C1CCCC1 [Example 387] ?
result: > 6.00

query: What value of measured pIC50 is listed for CC(=O)N1CCN(c2ccc(Nc3ncc4ccn(C5CCCCCC5)c4n3)cc2)CC1 [Example 225] ?
result: > 6.00

query: What value of measured pIC50 is listed for CCC(CC)n1cc(C)c2cnc(Nc3ccc(N4CCN(C(C)=O)CC4)cc3)nc21 [Example 263] ?
result: < 5.00

query: What value of measured pIC50 is listed for CCC(CC)n1c(C)cc2cnc(Nc3ccc(C(=O)NC4CCCC4)cc3)nc21 [Example 331] ?
result: < 5.00

query: What value of measured pIC50 is listed for Cc1cn(C2CCCCC2)c2nc(Nc3ccc(N4CCN(C)CC4)cc3)ncc12 [Example 269] ?
result: > 5.00

query: What value of measured pIC50 is listed for CC(C)(C)OC(=O)N1CCN(c2ccc(Nc3ncc4ccn(C5CCCC5)c4n3)cc2)CC1 [Example 427] ?
result: < 5.00

query: What value of measured pIC50 is listed for CCC(CC)n1c(COC)cc2cnc(Nc3ccc(N4CCN(C(C)=O)CC4)cc3)nc21 [Example 379] ?
result: < 5.00

----------
target: CDK2/Cyclin-A kinase complex (Homo sapiens, UniProt P24941); experiment: CDK2 IMAP fluorescence polarization assay; assay type: biochemical; settings: Table E; read-out: CDK2cyA IMAP/IC50 [umol l − 1]
Catalogue of molecules with associated IC50

CCOC(=O)C(C(C)C)n1ccc2cnc(Nc3ccc(N4CCNCC4)cc3)nc21 (stereo not shown)    > 10 µM

query: What value of measured IC50 is listed for CCC(CC)n1ccc2cnc(Nc3ccc(C4CCCNC4)cc3)nc21 (stereo not shown) ?
result: < 10 µM

query: What value of measured IC50 is listed for `CCC(CC)n1c(C(=O)Nc2ccc(CN3CCN(C)CC3)cc2)cc2cnc(Nc3ccc(N4CCNCC4)cc3)nc21` ?
result: > 15 µM

query: What value of measured IC50 is listed for `CCC(CC)n1c(C(=O)Nc2cccc(F)c2)cc2cnc(Nc3ccc(N4CCNCC4)cc3)nc21` ?
result: < 10 µM

query: What value of measured IC50 is listed for `CCC(CC)n1ccc2cnc(Nc3ccc(N4CCN(C(C)=O)CC4)cn3)nc21` ?
result: > 10 µM

query: What value of measured IC50 is listed for `CC(=O)N1CCN(c2ccc(Nc3ncc4c(C)cn(C5CCCCC5)c4n3)cc2)CC1` ?
result: > 10 µM

query: What value of measured IC50 is listed for `CCC(CC)n1c(CNC(C)C)cc2cnc(Nc3ccc(N4CCN(C(C)=O)CC4)cc3)nc21` ?
result: < 10 µM

query: What value of measured IC50 is listed for `Cc1n[nH]c(-c2c(C)c3cnc(Nc4ccc(N5CCNCC5)cn4)nc3n2C2CCCC2)n1` ?
result: > 10 µM

query: What value of measured IC50 is listed for `Cc1c(-c2cnco2)n(C2CCCCCC2)c2nc(Nc3ccc(N4CCNCC4)cn3)ncc12` ?
result: < 1 µM

query: What value of measured IC50 is listed for `Cc1cn(C2CCCC2)c2nc(Nc3ccccc3F)ncc12` ?
result: > 10 µM

----------
molecular target: CDK2/Cyclin-A kinase complex (Homo sapiens); test: CDK2 IMAP fluorescence polarization assay; format: biochemical; conditions: Table E; read-out: CDK2cyA IMAP/IC50 [umol l − 1]
EXPERIMENTAL READOUT: IC50

The examples below pair each entry with its known result.
CC(=O)c1c(C)c2cnc(Nc3ccc(N4CCNCC4)cn3)nc2n1C1CCOCC1    > 10 µM
Cc1cn(C2CCCC2)c2nc(Nc3ccc(C(=O)N4CCOCC4)cc3)ncc12    < 10 µM
CCC(CC)n1c(C(=O)N2CCCC2)cc2cnc(Nc3ccc(N4CCNCC4)cc3)nc21    > 10 µM
CCC(CC)n1c(C(=O)NC)cc2cnc(Nc3ccc(N4CCNCC4)cc3)nc21    < 10 µM

query: What value of measured IC50 is listed for `CCC(=O)N1CCN(c2ccc(Nc3ncc4ccn(C(CC)CC)c4n3)cc2)CC1` ?
result: < 10 µM

query: What value of measured IC50 is listed for `CCC(CC)n1c(CNCc2ccco2)cc2cnc(Nc3ccc(N4CCN(C(C)=O)CC4)cc3)nc21` ?
result: < 10 µM

query: What value of measured IC50 is listed for `Cc1cn(C2CCCC2)c2nc(Nc3nccc4ccccc34)ncc12` ?
result: > 10 µM

query: What value of measured IC50 is listed for Cc1cn(C2CCC(O)C2)c2nc(Nc3ccc(CN4CCNCC4)cc3)ncc12 (centres unmarked) ?
result: < 1 µM

----------
target: UniProt:P11802; assay: CDK4 HTRF assay; format: biochemical; conditions: Table E; read-out: CDK4 HTRF/IC50 [umol l − 1]
Catalogue of compounds with associated IC50

The examples below pair each entry with its known result.
CCC(C)n1c(C#N)c(C)c2cnc(Nc3ccc(N4CCC(N(C)C)CC4)cc3)nc21 (stereo not shown)    < 1000 nM
Clc1cn(C2CCCC2)c2nc(Nc3ccc(N4CCNCC4)cn3)ncc12    < 1000 nM
Cc1cn(C2CCCC2)c2nc(Nc3ccc(CN4CCOCC4)cc3)ncc12    < 1000 nM

query: What value of measured IC50 is listed for `COC(=O)c1c(C)n(C2CCCC2)c2nc(Nc3ccc(N4CCNCC4)cn3)ncc12` ?
result: > 10000 nM

----------
target: JAK-3 (Homo sapiens, UniProt P52333); construct: GST fusion constructs of the kinase domains of both enzymes are used; GST; assay: JAK LANCE enzymatic assay (JAK-3); format: biochemical; conditions: Table A; read-out: Jak-3/ IC50
Sequence (P52333 822-1111 limits assumed): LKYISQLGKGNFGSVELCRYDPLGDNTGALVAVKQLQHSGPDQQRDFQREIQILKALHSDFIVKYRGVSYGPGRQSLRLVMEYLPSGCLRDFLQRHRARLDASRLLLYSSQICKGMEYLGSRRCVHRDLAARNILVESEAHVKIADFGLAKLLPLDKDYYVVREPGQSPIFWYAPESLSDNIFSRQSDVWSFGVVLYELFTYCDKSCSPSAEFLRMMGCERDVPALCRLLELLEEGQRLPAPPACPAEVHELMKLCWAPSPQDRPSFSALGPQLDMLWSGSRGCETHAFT
pIC50: −log10 of the molar value.
Catalogue of compounds with associated pIC50

The examples below pair each entry with its known result.
CCC(CC)N1C(=O)Cc2cnc(Nc3ccc(NC(C)=O)cc3)nc21    ≤ 7.00
CCC(CC)n1ccc2cnc(Nc3ccc(N4CCN(C)CC4)cn3)nc21 [drawing 82]    ≤ 7.00
CCC(CC)N1C(=O)Cc2cnc(Nc3ccc(C(=O)N4CCOCC4)cc3)nc21    ≤ 7.00

Switching to the query record.
query: What value of measured pIC50 is listed for `CCC(CC)N1C(=O)Cc2cnc(Nc3cccc(OCCN4CCN(C)CC4)c3)nc21` ?
result: ≤ 7.00

----------
target: hCDK1/B (Homo sapiens); assay: hCDK1/B assay; details: Table E; read-out: hCDK1/B/IC50 [umol l − 1]
Sequence (P06493 whole entry): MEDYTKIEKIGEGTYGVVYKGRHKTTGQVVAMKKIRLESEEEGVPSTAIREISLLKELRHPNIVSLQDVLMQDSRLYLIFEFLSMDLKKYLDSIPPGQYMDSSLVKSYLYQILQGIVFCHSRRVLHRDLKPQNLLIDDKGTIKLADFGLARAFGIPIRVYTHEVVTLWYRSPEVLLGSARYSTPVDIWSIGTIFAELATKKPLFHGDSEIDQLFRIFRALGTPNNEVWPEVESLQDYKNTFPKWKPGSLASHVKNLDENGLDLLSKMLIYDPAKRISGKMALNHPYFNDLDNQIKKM
Sequence (P14635 whole entry partner): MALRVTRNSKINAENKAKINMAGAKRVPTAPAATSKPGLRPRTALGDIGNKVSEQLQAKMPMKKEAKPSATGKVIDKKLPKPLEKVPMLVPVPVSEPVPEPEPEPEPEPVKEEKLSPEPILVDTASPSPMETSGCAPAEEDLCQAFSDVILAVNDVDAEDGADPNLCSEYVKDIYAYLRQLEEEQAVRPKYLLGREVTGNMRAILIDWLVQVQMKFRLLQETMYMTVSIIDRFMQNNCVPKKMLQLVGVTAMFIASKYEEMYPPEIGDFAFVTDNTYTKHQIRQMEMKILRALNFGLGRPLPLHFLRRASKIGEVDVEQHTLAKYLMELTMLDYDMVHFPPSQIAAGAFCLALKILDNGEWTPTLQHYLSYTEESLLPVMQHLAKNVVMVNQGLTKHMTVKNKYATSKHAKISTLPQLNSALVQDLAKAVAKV
pIC50: −log10 of the molar value.
Catalogue of compounds with associated pIC50

The examples below pair each entry with its known result.
Cc1cn(C2CCCC2)c2nc(Nc3ccc4[nH]ncc4c3)ncc12    > 5.00
Cc1cn(C2CCCC2)c2nc(Nc3ccc(N4CCNCC4)cc3)ncc12    > 5.00
CCC(CC)n1c(C(=O)Nc2cccc(C(F)(F)F)c2)cc2cnc(Nc3ccc(N4CCNCC4)cc3)nc21    < 5.00

query: What value of measured pIC50 is listed for `Cc1cn(C2CCCC2)c2nc(NN3CCN(C)CC3)ncc12` ?
result: < 5.00

query: What value of measured pIC50 is listed for `Cc1c(-c2cnco2)n(C2CCCC2)c2nc(Nc3ccc(CN4CCNCC4)cn3)ncc12` ?
result: > 5.00

query: What value of measured pIC50 is listed for `CCC(CC)n1c(CNCCc2cc3ccccc3[nH]2)cc2cnc(Nc3ccc(N4CCN(C(C)=O)CC4)cc3)nc21` ?
result: > 5.00

----------
biological target: hCDK1/B (Homo sapiens); assay: hCDK1/B assay; assay type: biochemical; conditions: Table E; read-out: hCDK1/B/IC50 [umol l − 1]
pIC50: −log10 of the molar value.
EXPERIMENTAL READOUT: pIC50

CCC(CC)n1c(C(=O)Nc2ccc(C(C)(C)C)cc2)cc2cnc(Nc3ccc(N4CCNCC4)cc3)nc21 [Example 349]    < 4.82
OC[C@@H]1CCC(n2ccc3cnc(Nc4ccc(N5CCNCC5)cc4)nc32)C1 (some centres unmarked) [Example 250]    > 6.00
Cc1cn(C2CCCC2)c2nc(Nc3ccncn3)ncc12 [Example 304]    < 5.00
CN(C)C(=O)c1cc2cnc(NCc3ccc(N4CCNCC4)cc3)nc2n1C1CCCC1 [Example 467]    < 4.82
Cc1cn(C2CCCC2)c2nc(Nc3ccccc3)ncc12 [Example 277]    < 5.00

Switching to the query record.
query: What value of measured pIC50 is listed for Cc1c(C(N)=O)n(C2CCCC2)c2nc(Nc3ccc(N4CCNCC4)cn3)ncc12 [Example 391] ?
result: < 5.00
